Molecular target: TRAP1 enzyme (Homo sapiens, UniProt Q12931)
Sequence (Q12931 60-704): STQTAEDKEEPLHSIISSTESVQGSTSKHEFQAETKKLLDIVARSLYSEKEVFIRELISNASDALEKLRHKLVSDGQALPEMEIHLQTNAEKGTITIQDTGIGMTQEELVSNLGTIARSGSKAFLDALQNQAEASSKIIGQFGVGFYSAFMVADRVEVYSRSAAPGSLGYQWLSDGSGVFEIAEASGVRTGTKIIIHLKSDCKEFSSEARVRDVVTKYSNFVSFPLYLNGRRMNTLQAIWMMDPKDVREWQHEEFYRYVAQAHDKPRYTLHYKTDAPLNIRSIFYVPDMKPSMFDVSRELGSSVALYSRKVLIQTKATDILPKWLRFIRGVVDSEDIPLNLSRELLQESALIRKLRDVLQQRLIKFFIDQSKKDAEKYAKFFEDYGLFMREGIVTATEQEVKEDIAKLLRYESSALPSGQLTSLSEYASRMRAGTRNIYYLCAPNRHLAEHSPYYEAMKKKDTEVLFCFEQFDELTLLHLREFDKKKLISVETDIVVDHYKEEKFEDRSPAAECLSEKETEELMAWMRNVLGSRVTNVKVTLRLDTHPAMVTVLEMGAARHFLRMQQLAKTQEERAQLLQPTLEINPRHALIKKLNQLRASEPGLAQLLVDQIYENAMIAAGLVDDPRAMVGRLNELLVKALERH
Test: ADP Glo assay (ATPase activity of TRAP1)
Details: 150 nM Trap1, 20 µM ATP, concentration for half maximal activation; read-out: ADP GLO DRC: GeoMean EC50
pEC50: −log10 of the molar value.
Would you kindly list pEC50 for each of these molecules?

As a guide, the following entries are already answered.
Item: O=C(Nc1ccc2c(c1)S(=O)(=O)N(c1ccc(C(F)(F)F)cc1)CCO2)c1cncs1 | pEC50: 4.52 to 4.70

Item: COc1nccnc1C(=O)Nc1ccc2c(c1)S(=O)(=O)N(c1ccc(C(F)(F)F)cc1)CCO2 | pEC50: 4.52 to 4.70

Item: Cc1ncncc1C(=O)Nc1ccc2c(c1)S(=O)(=O)N(c1ccc(C(F)(F)F)cc1)CCO2 | pEC50: 4.00 to 4.52

Item: Cc1nn(C)cc1C(=O)Nc1ccc2c(c1)S(=O)(=O)N(c1ccc(C(F)(F)F)cc1)CCO2 | pEC50: 4.00 to 4.52

Item: CC(C)n1cc(C(=O)Nc2ccc3c(c2)S(=O)(=O)N(c2ccc(C(F)(F)F)cc2)CCO3)cn1 | pEC50: 4.52 to 4.70

Item: COc1cc(N2CCOc3ccc(NC(=O)c4ncoc4C)cc3S2(=O)=O)ccc1C(F)(F)F | pEC50: > 4.70

Item: O=C(Nc1ccc2c(c1)S(=O)(=O)N(c1ccc(C(F)(F)F)cc1)CCO2)c1cscn1 | pEC50: > 4.70

Item: Cc1ncccc1C(=O)Nc1ccc2c(c1)S(=O)(=O)N(c1ccc(C(F)(F)F)cc1)CCO2 | pEC50: 4.00 to 4.52

Hi there! I need pEC50 for each item below, if you can.
1. Cn1cccc(C(=O)Nc2cnc3c(c2)S(=O)(=O)N(c2ccc(C(F)(F)F)cc2)CCO3)c1=O
2. COCc1oncc1C(=O)Nc1ccc2c(c1)S(=O)(=O)N(c1ccc(C(F)(F)F)cc1)CCO2
3. Cc1ccncc1C(=O)Nc1ccc2c(c1)S(=O)(=O)N(c1ccc(C(F)(F)F)cc1)CCO2
4. Cc1ncc(C(=O)Nc2ccc3c(c2)S(=O)(=O)N(c2ccc(C(F)(F)F)cc2)CCO3)n1C
5. O=C(Nc1ccc2c(c1)S(=O)(=O)N(c1ccc(C(F)(F)F)cc1)CCO2)c1cnccc1F
6. Cc1ncsc1C(=O)Nc1ccc2c(c1)S(=O)(=O)N(c1ccc(C(F)(F)F)cc1)CCO2

4.52 to 4.70
4.00 to 4.52
4.52 to 4.70
> 4.70
4.52 to 4.70
> 4.70

Item: Cc1cnn(C)c1C(=O)Nc1ccc2c(c1)S(=O)(=O)N(c1ccc(C(F)(F)F)cc1)CCO2 | pEC50: > 4.70

---

Target: UniProtKB Q12931
Test: ADP Glo assay (ATPase activity of TRAP1)
Settings: 150 nM Trap1, 20 µM ATP, concentration for half maximal activation; read-out: ADP GLO DRC: GeoMean EC50
readout: EC50

Item: Cc1ccccc1N1CCOc2ccc(NC(=O)c3ncoc3C)cc2S1(=O)=O | EC50: 30 to 100 µM

Hi there! I need EC50 for each item below, if you can.
1. O=C(Nc1ccc2c(c1)S(=O)(=O)N(c1ccc(C(F)(F)F)cc1)CCO2)c1cnc[nH]c1=O
2. Cc1cc(C(=O)Nc2ccc3c(c2)S(=O)(=O)N(c2ccc(C(F)(F)F)cc2)CCO3)ccn1
3. Cc1ocnc1C(=O)N(C)c1ccc2c(c1)S(=O)(=O)N(c1ccc(C(F)(F)F)cc1)CCO2
4. Cc1cc(C(=O)Nc2ccc3c(c2)S(=O)(=O)N(c2ccc(C(F)(F)F)cc2)CCO3)cc(C)n1 [Compound 2510]
5. Cc1ocnc1C(=O)Nc1ccc2c(c1)S(=O)(=O)N(c1ccc(C(F)(F)F)cc1)CCO2
6. O=C(Nc1ccc2c(c1)S(=O)(=O)N(c1ccc(C(F)(F)F)cc1)CCO2)c1c(F)cncc1F
7. O=C(Nc1ccc2c(c1)S(=O)(=O)N(c1ccc(C(F)(F)F)cc1)CCO2)c1csc(-c2ccccc2)n1
8. Cc1ncc(C(=O)Nc2ccc3c(c2)S(=O)(=O)N(c2ccc(C(F)(F)F)cc2)CCO3)c(C)n1

["< 20 µM", "20 to 30 µM", "30 to 100 µM", "30 to 100 µM", "< 20 µM", "20 to 30 µM", "30 to 100 µM", "30 to 100 µM"]

Hi there! I need EC50 for each item below, if you can.
1. O=C(Nc1ccc2c(c1)S(=O)(=O)N(c1ccc(C(F)(F)F)cc1)CCO2)c1ccc(O)nn1
2. O=C(Nc1ccc2c(c1)S(=O)(=O)N(c1ccc(C(F)(F)F)cc1)CCO2)c1csc2c1CNCC2
3. O=C(Nc1ccc2c(c1)S(=O)(=O)N(c1ccc(C(F)(F)F)cc1)CCO2)c1cnc(-c2ccccc2)[nH]1
4. CC(C)n1cncc1C(=O)Nc1ccc2c(c1)S(=O)(=O)N(c1ccc(C(F)(F)F)cc1)CCO2

1: < 20 µM; 2: 30 to 100 µM; 3: < 20 µM; 4: 20 to 30 µM

Hi there! I need EC50 for each item below, if you can.
1. Cc1noc(C)c1C(=O)Nc1ccc2c(c1)S(=O)(=O)N(c1ccc(C(F)(F)F)cc1)CCO2
2. O=C(Nc1ccc2c(c1)S(=O)(=O)N(c1ccc(C(F)(F)F)cc1)CCO2)c1ncoc1C(F)(F)F

["< 20 µM", "30 to 100 µM"]
